- Tested on: Fer (mouse);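 note: 11-residue human phosphosite peptides and single-mutation variants displayed on the E. coli surface, counted by deep sequencing, each peptide's frequency after selection divided by its frequency in the unselected input library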;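 note: frequency after pTyr selection over input frequency; kinase dosed for 20-30% of maximal phosphorylation in three min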
- Method: phosphorylation enrichment, bacterial display (enrichment ratio); higher = better substrate or ligand; peptides without Tyr show the background
Please respond with reported phosphorylation enrichment for every item in the list.
Give only the figure.

## Task Give phosphorylation enrichment for the following sequence: SEASFYKSLNL [NGEF_Y289_YF]
## Result 0.57

## Task Give phosphorylation enrichment for the following sequence: TYEYKYPEGSS [TGM4_Y440]
## Result 0.392

## Task Give phosphorylation enrichment for the following sequence: FNNPAYYVLEG [INPPL1_Y986]
## Result 0.485

## Task Give phosphorylation enrichment for the following sequence: TRDVNYGWVIR [MT-CYB_Y75_I78V]
## Result 1.05

## Task Give phosphorylation enrichment for the following sequence: AEKPKYQISNI [TJP1_Y1602_N1605S]
## Result 0.377

## Task Give phosphorylation enrichment for the following sequence: HLATEYVFSDF [PANX1_Y10_Q5H]
## Result 0.788

## Task Give phosphorylation enrichment for the following sequence: GSQERYFELVE [TSC2_Y407]
## Result 0.541

## Task Give phosphorylation enrichment for the following sequence: TDKLFYIFTPG [SLC27A4_Y243_S247P_YF]
## Result 0.544

## Task Give phosphorylation enrichment for the following sequence: PTTKTYLPHFD [HBA1_Y43_F44L]
## Result 0.386

## Task Give phosphorylation enrichment for the following sequence: QFQLKYSETPF [SIX6OS1_Y129_YF]
## Result 0.789

## Task Give phosphorylation enrichment for the following sequence: GTVRDYPDFNP [ANXA3_Y15_S19N]
## Result 0.407

## Task Give phosphorylation enrichment for the following sequence: HLSPEYKQNEI [GJB1_Y243_R238H]
## Result 0.418

## Task Give phosphorylation enrichment for the following sequence: AEPNIYQEKLS [USP54_Y1233_D1231N]
## Result 0.34

## Task Give phosphorylation enrichment for the following sequence: ERPGVYTNVVE [F11_Y608]
## Result 0.413

## Task Give phosphorylation enrichment for the following sequence: WGLCSYYETSK [MAGED2_Y448_R446C]
## Result 0.572

## Task Give phosphorylation enrichment for the following sequence: WNGDKYAATTT [TRIM39_Y439]
## Result 0.446

## Task Give phosphorylation enrichment for the following sequence: SHGQDYLVGNK [GSTA1_Y147]
## Result 0.449

## Task Give phosphorylation enrichment for the following sequence: YETVKYINNER [ABCB7_Y345_F346I]
## Result 10.5

## Task Give phosphorylation enrichment for the following sequence: MSIWPYLQKID [MFSD8_Y63]
## Result 0.362

## Task Give phosphorylation enrichment for the following sequence: FETSHYPASPD [CTNND2_Y1217_YF]
## Result 0.486

## Task Give phosphorylation enrichment for the following sequence: IFGVSYGEYRY [CFTR_Y512_D513G]
## Result 0.736

## Task Give phosphorylation enrichment for the following sequence: TCRPPYYHRNC [HGD_Y333_F329C]
## Result 0.233

## Task Give phosphorylation enrichment for the following sequence: HKLSSYEYDFE [BTK_Y40_Y39S]
## Result 1.03

## Task Give phosphorylation enrichment for the following sequence: RDLTHYLMKIL [ACTG1_Y188_D187H]
## Result 0.64

## Task Give phosphorylation enrichment for the following sequence: DTKAFYPEEIS [HSPA1A_Y115_E110D]
## Result 0.479

## Task Give phosphorylation enrichment for the following sequence: SSEYHYVGGFY [CTSC_Y347]
## Result 2.24

## Task Give phosphorylation enrichment for the following sequence: NSRFTYKLEVK [USH2A_Y3747_YF]
## Result 0.599

## Task Give phosphorylation enrichment for the following sequence: TKFRNYLIPKG [CYP2C8_Y379]
## Result 0.345

## Task Give phosphorylation enrichment for the following sequence: CTTIHDNYMCN [TP53_Y234_Y234D]
## Result 0.54

The values you see were collected from the supplement of paper PMC10065799.
